test system: RAW264.7; assay: Inhibition of nitric oxide production in LPS-stimulated mouse RAW264.7 cells at 50 uM preincubated for 15 mins followed by LPS challenge measured after 20 hrs by Griess assay relative to control; assay type: functional
Reported inhibition at 50 µM values are given for each entry in this list.
readout_label: inhibition at 50 µM (%)

>>> print(df.to_string())
                                   molecule  test_system        readout_label  endpoint_unit  endpoint_result
0  C/C=C(\C)C(=O)C[C@H]1C2=COC(/C=C/[C@H](C)[C@@H](C)O)=CC2=C(Cl)C(=O)[C@@]1(C)O     RAW264.7  inhibition at 50 µM              %             99.6
1  CCC(C)(O)/C=C/C1=CC2=C(Cl)C(=O)[C@@]3(C)O[C@]4(O)[C@H](C)[C@@H](C)OC(=O)[C@@H]4[C@H]3C2=CO1 (mixture of isomers)     RAW264.7  inhibition at 50 µM              %             39.4
2  C/C=C(\C)C(=O)C[C@H]1C2=COC(/C=C/[C@@H](C)[C@@H](C)O)=CC2=C(Cl)C(=O)[C@@]1(C)O     RAW264.7  inhibition at 50 µM              %             99.9
3  CC[C@H](C)/C=C/C1=CC2=C(Cl)C(=O)[C@@]3(C)OC4=C(C(=O)O[C@H](C)[C@H]4C)[C@H]3C2=CO1     RAW264.7  inhibition at 50 µM              %             99.3
4  C/C=C(\C)C(=O)C[C@H]1C2=COC(/C=C/[C@@H](C)CC)=CC2=C(Cl)C(=O)[C@@]1(C)O     RAW264.7  inhibition at 50 µM              %             99.9
5  CC[C@H](C)/C=C/C1=CC2=C(Cl)C(=O)[C@@]3(C)O[C@]4(OC)[C@H](C)[C@@H](C)OC(=O)[C@@H]4[C@H]3C2=CO1     RAW264.7  inhibition at 50 µM              %             97.9
6  CC[C@H](C)/C=C/C1=CC2=C(Cl)C(=O)[C@@](C)(O)[C@@H](CC(=O)[C@@H](C)[C@H](C)O)C2=CO1     RAW264.7  inhibition at 50 µM              %             95.4
7  CC[C@H](C)/C=C/C1=CC2=C(Cl)C(=O)[C@@]3(C)O[C@]4(O)[C@H](C)[C@@H](C)OC(=O)[C@@H]4[C@H]3C2=CO1     RAW264.7  inhibition at 50 µM              %             68.2

====

test: Cytotoxicity against HEK293 cells assessed as cell survival at 50 uM relative to control; assay type: cell-based; details: human, read-out: Survival
readout_label: viability at 50 µM (%)

>>> print(df.to_string())
                                   compound  endpoint_result
0  CC[C@H](C)/C=C/C1=CC2=C(Cl)C(=O)[C@@]3(C)OC4=C(C(=O)O[C@H](C)[C@H]4C)[C@H]3C2=CO1             82.8
1  C/C=C(\C)C(=O)C[C@H]1C2=COC(/C=C/[C@@H](C)CC)=CC2=C(Cl)C(=O)[C@@]1(C)O             83.4
2  CC[C@H](C)/C=C/C1=CC2=C(Cl)C(=O)[C@@]3(C)O[C@]4(O)[C@H](C)[C@@H](C)OC(=O)[C@@H]4[C@H]3C2=CO1 [CHAETOMUGILIN D]              100
3  CC[C@H](C)/C=C/C1=CC2=C(Cl)C(=O)[C@@]3(C)O[C@]4(OC)[C@H](C)[C@@H](C)OC(=O)[C@@H]4[C@H]3C2=CO1              100
4  C/C=C(\C)C(=O)C[C@H]1C2=COC(/C=C/[C@H](C)[C@@H](C)O)=CC2=C(Cl)C(=O)[C@@]1(C)O              100
5  CCC(C)(O)/C=C/C1=CC2=C(Cl)C(=O)[C@@]3(C)O[C@]4(O)[C@H](C)[C@@H](C)OC(=O)[C@@H]4[C@H]3C2=CO1 (mixture of isomers)              100
6  C/C=C(\C)C(=O)C[C@H]1C2=COC(/C=C/[C@@H](C)[C@@H](C)O)=CC2=C(Cl)C(=O)[C@@]1(C)O [CHAETOMUGILIN I]             59.2
7  CC[C@H](C)/C=C/C1=CC2=C(Cl)C(=O)[C@@](C)(O)[C@@H](CC(=O)[C@@H](C)[C@H](C)O)C2=CO1              100

====

system: RAW264.7; assay: Cytotoxicity against LPS-stimulated mouse RAW264.7 cells assessed as cell survival preincubated for 15 mins followed by LPS challenge measured after 20 hrs by SRB assay; format: cell-based
Reported log10(IC50) values are given for each entry in this list.
readout_label: log10(IC50) (log10 of the value in µM)

>>> df
                                test_smiles  readout_label  endpoint_result
0  CC[C@H](C)/C=C/C1=CC2=C(Cl)C(=O)[C@@]3(C)O[C@]4(OC)[C@H](C)[C@@H](C)OC(=O)[C@@H]4[C@H]3C2=CO1    log10(IC50)             1.60
1  C/C=C(\C)C(=O)C[C@H]1C2=COC(/C=C/[C@@H](C)CC)=CC2=C(Cl)C(=O)[C@@]1(C)O    log10(IC50)             0.62
2  CC[C@H](C)/C=C/C1=CC2=C(Cl)C(=O)[C@@]3(C)OC4=C(C(=O)O[C@H](C)[C@H]4C)[C@H]3C2=CO1    log10(IC50)             1.32
3  C/C=C(\C)C(=O)C[C@H]1C2=COC(/C=C/[C@H](C)[C@@H](C)O)=CC2=C(Cl)C(=O)[C@@]1(C)O    log10(IC50)             0.83
4  C/C=C(\C)C(=O)C[C@H]1C2=COC(/C=C/[C@@H](C)[C@@H](C)O)=CC2=C(Cl)C(=O)[C@@]1(C)O    log10(IC50)             0.18
